The following compounds are shown together with reported IC50 values.
- tested system: human TRPV4 (hTRPV4/CHO cells) (Homo sapiens, UniProt Q9HBA0)
- Construct: expressed in transfected cells; host or cells: CHO-K1
- Sequence (Q9HBA0 whole entry): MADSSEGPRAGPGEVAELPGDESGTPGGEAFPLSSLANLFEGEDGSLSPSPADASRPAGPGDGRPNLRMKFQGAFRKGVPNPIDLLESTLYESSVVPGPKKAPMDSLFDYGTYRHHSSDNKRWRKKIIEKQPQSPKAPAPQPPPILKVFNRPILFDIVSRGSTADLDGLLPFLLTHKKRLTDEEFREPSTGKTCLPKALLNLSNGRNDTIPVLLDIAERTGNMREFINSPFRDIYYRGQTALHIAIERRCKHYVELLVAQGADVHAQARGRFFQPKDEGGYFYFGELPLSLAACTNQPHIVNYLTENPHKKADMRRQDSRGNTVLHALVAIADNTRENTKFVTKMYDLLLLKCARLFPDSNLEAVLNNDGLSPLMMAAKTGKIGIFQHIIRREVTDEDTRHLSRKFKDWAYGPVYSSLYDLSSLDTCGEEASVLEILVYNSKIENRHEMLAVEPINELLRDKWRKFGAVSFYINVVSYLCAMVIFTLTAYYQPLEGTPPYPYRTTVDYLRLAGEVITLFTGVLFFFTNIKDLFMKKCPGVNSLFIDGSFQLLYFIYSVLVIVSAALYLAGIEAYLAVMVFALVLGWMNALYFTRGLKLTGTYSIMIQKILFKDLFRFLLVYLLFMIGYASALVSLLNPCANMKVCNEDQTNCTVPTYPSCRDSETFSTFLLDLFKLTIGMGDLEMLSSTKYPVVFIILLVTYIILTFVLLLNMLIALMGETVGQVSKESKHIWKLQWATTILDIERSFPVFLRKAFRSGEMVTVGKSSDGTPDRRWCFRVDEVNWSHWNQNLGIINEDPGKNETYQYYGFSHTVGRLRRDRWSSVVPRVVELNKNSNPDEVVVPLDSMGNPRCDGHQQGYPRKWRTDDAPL
- assay: Test Example 1: TRPV4 inhibitory activity (IC50 value), 4α-PDD stimulation, Fluo4 calcium fluorescence (FLIPR TETRA)
- Format: cell-based
- details: Test Example 1, 4α-PDD stimulation, read-out: Test 1 IC50

Cc1nc(C)c(-c2csc(NC(=O)Cn3cc(CCCC#N)nn3)n2)s1
1000 to 8000 nM
Cc1nc([C@H](C)O)sc1-c1csc(NC(=O)Cc2cc(Br)cc(C(=O)N[C@H](c3ccccc3)C(F)(F)F)c2)n1
< 100 nM
Cc1nc(C)c(-c2csc(NC(=O)Cc3cccc(S(C)(=O)=O)c3)n2)s1
100 to 1000 nM

// query Form entry - test system: human TRPV4 (hTRPV4/CHO cells) (Homo sapiens, UniProt Q9HBA0); read-out: IC50; compound: Cc1nc(CO)sc1-c1csc(NC(=O)[C@@H]2C[C@@H](c3ccccc3)CN2S(=O)(=O)C(C)C)n1
// result < 100 nM

// query Form entry - test system: human TRPV4 (hTRPV4/CHO cells) (Homo sapiens, UniProt Q9HBA0); read-out: IC50; compound: Cc1nc(C)c(-c2csc(NC(=O)Cc3cccc(C(=O)NC(C(C)(C)C)C(F)(F)F)n3)n2)s1 (centres unmarked)
// result < 100 nM

// query Form entry - test system: human TRPV4 (hTRPV4/CHO cells) (Homo sapiens, UniProt Q9HBA0); read-out: IC50; compound: Cc1nc(C)c(-c2csc(NC(=O)Cc3ccc(C(F)(F)F)cn3)n2)s1 [Compound I-104]
// result < 100 nM

// query Form entry - test system: human TRPV4 (hTRPV4/CHO cells) (Homo sapiens, UniProt Q9HBA0); read-out: IC50; compound: Cc1nc(C)c(-c2csc(NC(=O)[C@@H]3C[C@@H](N4CCCCC4)CN3C(=O)OC(C)(C)C)n2)s1
// result 1000 to 8000 nM

// query Form entry - test system: human TRPV4 (hTRPV4/CHO cells) (Homo sapiens, UniProt Q9HBA0); read-out: IC50; compound: Cc1nc(C)c(-c2csc(NC(=O)Cc3ccc(C(F)(F)F)cc3)n2)s1
// result < 100 nM
